Source listed as patent US20220251241A1.

biological target: HTRA1 (construct not given) (Homo sapiens (Human), UniProt Q92743 23-480, limits assumed); assay: SPR (Biacore)
Sequence (Q92743 23-480 limits assumed): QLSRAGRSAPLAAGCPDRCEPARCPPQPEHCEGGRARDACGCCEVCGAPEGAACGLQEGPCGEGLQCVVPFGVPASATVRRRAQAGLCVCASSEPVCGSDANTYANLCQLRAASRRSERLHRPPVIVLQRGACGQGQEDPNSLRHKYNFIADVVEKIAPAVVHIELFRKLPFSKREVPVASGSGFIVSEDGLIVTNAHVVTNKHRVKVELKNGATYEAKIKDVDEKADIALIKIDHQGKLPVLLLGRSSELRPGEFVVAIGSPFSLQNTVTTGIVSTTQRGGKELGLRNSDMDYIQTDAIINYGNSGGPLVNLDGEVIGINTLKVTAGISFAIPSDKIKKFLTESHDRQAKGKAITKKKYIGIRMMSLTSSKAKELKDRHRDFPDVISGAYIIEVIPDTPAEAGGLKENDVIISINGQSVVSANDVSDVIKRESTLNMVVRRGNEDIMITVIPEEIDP
Can you tell me Kd for the items I'm about to list?

# example entries with known answers
binder | Kd
hz24F7.v2 S92D (antibody, human IgG1, kappa, N297G, V domains shown, hz24F7.v2 with a substitution in light chain CDR3) VH: QVQLVQSGAEVKKPGASVKVSCKASGYTFTDYEMHWVRQAPGQRLEWMGAIDPETGGTAYNQKFKGRVTITADKSASTAYMELSSLRSEDTAVYYCTREGYSYEGGGYYFDYWGQGTLVTVSS VL: DIQMTQSPSSLSASVGDRVTITCSVSSSVSYMYWYQQKPGKAPKLLIYDTSNLASGVPSRFSGSGSGTDFTFTISSLQPEDIATYYCQQWSDYPTFGQGTKLEIKR | 0.0249 nM
hz24F7.v2 S91A (antibody, human IgG1, kappa, N297G, V domains shown, hz24F7.v2 with a substitution in light chain CDR3) VH: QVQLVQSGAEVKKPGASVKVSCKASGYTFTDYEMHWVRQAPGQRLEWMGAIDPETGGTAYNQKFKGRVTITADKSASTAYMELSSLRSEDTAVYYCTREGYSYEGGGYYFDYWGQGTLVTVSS VL: DIQMTQSPSSLSASVGDRVTITCSVSSSVSYMYWYQQKPGKAPKLLIYDTSNLASGVPSRFSGSGSGTDFTFTISSLQPEDIATYYCQQWASYPTFGQGTKLEIKR | 0.0465 nM

Request: Param item = hz24F7.v2 S92Y (antibody, human IgG1, kappa, N297G, V domains shown, hz24F7.v2 with a substitution in light chain CDR3) VH: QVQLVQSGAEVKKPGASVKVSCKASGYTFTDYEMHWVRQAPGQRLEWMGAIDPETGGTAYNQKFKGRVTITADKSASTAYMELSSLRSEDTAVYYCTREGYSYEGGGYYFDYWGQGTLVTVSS VL: DIQMTQSPSSLSASVGDRVTITCSVSSSVSYMYWYQQKPGKAPKLLIYDTSNLASGVPSRFSGSGSGTDFTFTISSLQPEDIATYYCQQWSYYPTFGQGTKLEIKR ; retrieve measured Kd.
Result: 0.0321 nM
